The entries below are paired with their reported pKd.
Tested System: bacteriophage T5 empty expanded capsid (without pb10) (bacteriophage T5)
Sequence (Q6QGD8 160-458 limits assumed, chain 1 of 2): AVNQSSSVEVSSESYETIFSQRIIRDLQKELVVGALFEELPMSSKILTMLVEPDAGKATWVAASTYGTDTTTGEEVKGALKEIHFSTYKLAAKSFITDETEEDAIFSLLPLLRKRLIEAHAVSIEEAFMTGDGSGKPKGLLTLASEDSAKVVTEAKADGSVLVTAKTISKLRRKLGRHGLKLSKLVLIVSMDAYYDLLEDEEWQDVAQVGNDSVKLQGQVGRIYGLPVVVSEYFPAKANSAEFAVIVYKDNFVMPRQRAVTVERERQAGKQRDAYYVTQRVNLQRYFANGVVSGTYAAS
Sequence (Q6QGD5 11-403 limits assumed, chain 2 of 2, further chain): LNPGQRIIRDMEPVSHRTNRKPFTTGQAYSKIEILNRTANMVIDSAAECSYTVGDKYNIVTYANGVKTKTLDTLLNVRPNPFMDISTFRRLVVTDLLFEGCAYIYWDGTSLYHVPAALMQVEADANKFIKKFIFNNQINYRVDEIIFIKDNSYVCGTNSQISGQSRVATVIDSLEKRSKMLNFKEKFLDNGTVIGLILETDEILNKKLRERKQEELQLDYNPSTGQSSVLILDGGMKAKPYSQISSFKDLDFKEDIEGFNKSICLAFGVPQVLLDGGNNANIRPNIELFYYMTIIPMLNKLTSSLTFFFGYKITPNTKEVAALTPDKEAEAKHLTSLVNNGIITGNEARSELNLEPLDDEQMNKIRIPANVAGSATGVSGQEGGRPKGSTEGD
Protocol Summary: SPR; T200, 25 °C, PBS (137 mM NaCl) with 1 mg/mL BSA; expanded capsids captured on a CM5 chip through immobilised rabbit anti-capsid antibodies; pb10 variants 0.09 to 40 nM injected at 50 uL/min; koff set at 2 x 10^-4 s^-1 for all proteins; global fit to a Langmuir mass transport-limited model
Please note pKd is a logarithmic value: minus log10 of concentration in mol/L. Answer with that number alone.

Below, 3 binders whose answers are already recorded.
pb10 N-terminal domain (NTD), residues 1 to 77 (domain or fragment) MIDYSGLRTIFGEKLPESHIFFATVAAHKYVPSYAFLRRELGLSSAHTNRKVWKKFVEAYGKAIPPAPPAPPLTLSK; 12.26
pb10 Y34A-R38E (natural protein) MIDYSGLRTIFGEKLPESHIFFATVAAHKYVPSAAFLERELGLSSAHTNRKVWKKFVEAYGKAIPPAPPAPPLTLSKDLTASMSVEEGAALTLSVTATGGTGPYTYAWTKDGSPIPDASGATYTKPTAAAEDAGSYKVTVTDSKQVSKDSTTCAVTVNPTVPGG; 9.32
decoration protein pb10 of bacteriophage T5, full-length, fused to a C-terminal histidine tag (natural protein, UniProt Q6QGD6 1-164, looked up, decoration protein pb10 of bacteriophage T5, 164 amino acids, GenBank AAU05286; Monomer by SEC-MALLS (17 kDa); 18.3 kDa with the His tag; also called pb10-His; His-tagged pb10; source: pET28b expression vector, purified (expression and purification detailed in SI); not shown: His-Tag, C-terminal, kept) MIDYSGLRTIFGEKLPESHIFFATVAAHKYVPSYAFLRRELGLSSAHTNRKVWKKFVEAYGKAIPPAPPAPPLTLSKDLTASMSVEEGAALTLSVTATGGTGPYTYAWTKDGSPIPDASGATYTKPTAAAEDAGSYKVTVTDSKQVSKDSTTCAVTVNPTVPGG; 11.95

Here's the next entry for you.
# binder pb10 R38A (natural protein) MIDYSGLRTIFGEKLPESHIFFATVAAHKYVPSYAFLARELGLSSAHTNRKVWKKFVEAYGKAIPPAPPAPPLTLSKDLTASMSVEEGAALTLSVTATGGTGPYTYAWTKDGSPIPDASGATYTKPTAAAEDAGSYKVTVTDSKQVSKDSTTCAVTVNPTVPGG ; its pKd = 11.78

The values you see were collected from paper PMC5292684.
